Tested on: HCT-116 colon cancer cell line
Labelling: GI50 reported below 0.4 µM becomes Satisfied; at or above becomes Not satisfied.

Examples from the recorded data:
> print(dat)
                        sample.smiles  classification
1    COc1ccccc1-c1cc(=O)c2cccnc2[nH]1   Not satisfied
2   Cc1cccc(C2=Nc3nc(C)ccc3C(=O)C2)c1       Satisfied
3  O=C1CC(c2ccc(F)cc2)=Nc2ncc(Cl)cc21   Not satisfied

Hello, I'm reviewing records and need to know if GI50 of Cc1ccnc2c1C(=O)CC(c1ccc(Cl)cc1)=N2 is below 0.4 µM. Could you check? Not satisfied

Thanks! And Cc1ccc2c(n1)N=C(c1ccc3ccccc3c1)CC2=O ? Not satisfied

Thanks! And Cc1cc(C)c2c(=O)cc(-c3cccc(Cl)c3)[nH]c2n1 ? Satisfied

Thanks! And COc1cccc(-c2cc(=O)c3c(C)ccnc3[nH]2)c1 ? Satisfied

Thanks! And COc1ccccc1-c1cc(=O)c2ccc(C)nc2[nH]1 ? Not satisfied

Thanks! And Cc1cnc2c(c1)C(=O)CC(c1ccc(F)cc1)=N2 ? Not satisfied

----------
Here we list compounds with their recorded log10 of GI50 when tested on SK-MEL-5 melanoma cell line.
The base-10 logarithm of GI50, taken with GI50 in µM, is what appears here.

Example entries and their recorded answers appear below.
> print(dat)
                            sample.smiles  assay.endpoint  measured.value
1  COc1cccc(-c2cc(=O)c3cc(Cl)cnc3[nH]2)c1   log10 of GI50           -0.90
2       O=C1CC(c2ccc3ccccc3c2)=Nc2ncccc21   log10 of GI50            0.54
3    Cc1ccc2c(=O)cc(-c3cccc(F)c3)[nH]c2n1   log10 of GI50           -1.65
4       Cc1cccc(-c2cc(=O)c3cccnc3[nH]2)c1   log10 of GI50           -1.59

Quick check: log10 of GI50 of COc1ccc(-c2cc(=O)c3c(C)ccnc3[nH]2)cc1 ? 0.59

Thanks! And Cc1ccc2c(n1)N=C(c1ccc(F)cc1)CC2=O ? 1.50

Thanks! And O=C1CC(c2ccc(Cl)cc2)=Nc2ncccc21 ? 1.46

----------
System: SK-MEL-5 melanoma cell line
Labelling: GI50 reported below 10000 nM becomes class 1; at or above becomes class 0.

Examples from the recorded data:
> print(dat)
                           sample.smiles  classification
1  COc1cccc(-c2cc(=O)c3c(C)ccnc3[nH]2)c1         class 1
2    Cc1cnc2c(c1)C(=O)CC(c1ccc(F)cc1)=N2         class 0

Hello, I'm reviewing records and need to know if GI50 of Cc1cc(C)c2c(n1)N=C(c1cccc3ccccc13)CC2=O is below 10000 nM. Could you check? class 1

Thanks! And Cc1cc(C)c2c(n1)N=C(c1ccc(Cl)cc1)CC2=O ? class 0

Thanks! And O=C1CC(c2ccc(F)cc2)=Nc2ncccc21 ? class 0

Thanks! And Cc1cc(C)c2c(=O)cc(-c3ccc4ccccc4c3)[nH]c2n1 ? class 1

Thanks! And COc1ccccc1-c1cc(=O)c2ccc(C)nc2[nH]1 ? class 0

Thanks! And COc1ccccc1-c1cc(=O)c2cc(C)cnc2[nH]1 ? class 0

Thanks! And COc1ccccc1-c1cc(=O)c2cccnc2[nH]1 ? class 0

Thanks! And COc1cccc(-c2cc(=O)c3c(C)cc(C)nc3[nH]2)c1 ? class 1
